Listed below are compounds with pIC50 for Serine/threonine-protein kinase mTOR (Homo sapiens, UniProt P42345), each taken from published literature.
pIC50: −log10 of the molar value.

Known results for compounds:
compound | pIC50
NC(=O)c1nc(-c2cccc(O)c2)nc2c1[nH]c(=O)n2Cc1ccccc1 | < 4.52
CC(C)NC(=O)Nc1ccc(-c2nc3c(c(N4CCOC[C@@H]4C)n2)CS(=O)(=O)C3)cc1 | 6.00 to 7.00
C[C@@H](O)C(=O)N1CCC(Oc2nc3c(-c4ccc(-c5ccccc5)nc4)cnn3c3[nH]ccc23)CC1 | 7.00 to 8.00
CC(C)C(C)n1cnc2c(-c3ccc(N)nc3)nc(N3CCOCC3)nc21 (stereo not shown) | > 6.00
Cc1ccccc1-c1ccccc1CC(C)(C)Nc1nc(N2CCOCC2)nc(-n2c(C(F)F)nc3ccccc32)n1 | < 6.30

Problem: pIC50 lookup needed for N[C@@H]1CCN(C(=O)c2ccc(NC(=O)Nc3ccc(-c4nc(N5CCOCC5)c5ccc(-c6cncnc6)cc5n4)cc3)cc2)C1 , thanks.
Solution: > 7.30

Problem: GET /values?readout=pIC50&item= Cc1cc(N)ncc1-c1nc(N2CCOCC2)c2nc(-c3cccc(NS(=O)(=O)CCCF)c3F)ccc2n1
Solution: 6.00 to 7.00

Problem: Requested read-out: pIC50. Entry: CCn1cc(-n2c(=O)n(C)c3cnc4ccc(-c5cnc(NC)c(Cl)c5)cc4c32)c(C)n1
Solution: 7.70

Problem: Can you share its pIC50? I mean this compound: Nc1ncc(-c2nc(N3CCOCC3)c3nc(N4CCN(C(=O)Cn5ccnc5)CC4)n(CC4CC4)c3n2)cn1
Solution: 7.52 to 8.00

###

The compounds below each have a reported IC50 tested on Serine/threonine-protein kinase mTOR (Homo sapiens, UniProt P42345); the values come from various publications.

Solved entries (count: 4):
compound | IC50
COc1cc(-c2cccc(NS(=O)(=O)CCCF)c2F)cc2c(N3CCOC[C@@H]3C)nc(-c3cnc(N)nc3)nc12 | 100 to 1000 nM
CCC(C)n1c(Cl)nc2c(-c3cccc(O)c3)nc(N3CCOCC3)nc21 (centres unmarked) | < 1000 nM
CO[C@@H]1CC[C@H](Cn2c(=O)[nH]c3ncc(-c4cnc5[nH]ccc5c4C)cc32)OC1 | < 50 nM
CN1CCN(c2cccc(-c3cnc4c(N5CCOCC5)nc(-c5cnc(N)nc5)nc4c3)c2)CC1 | 50 to 200 nM

Please examine the following record next.
Problem: Given the compound CCC(=O)Nc1cccc(-c2cnc3c(N4CCOCC4)nc(-c4cnc(N)nc4)nc3c2)c1 , what is its reported IC50?
Solution: < 50 nM

###

pIC50: −log10 of the molar value.
Consider the following pIC50 data for Serine/threonine-protein kinase mTOR (Homo sapiens), collected from several reports.

Examples with answers:
line notation | result
CC(C)(C#N)c1ccc(-n2nnc3cnc4ccc(-c5cnc(N)c(C(F)(F)F)c5)nc4c32)cn1 | > 7.00
CNc1ncc(-c2nc(N3CCOCC3)c3nc(N4CCN(C(C)=O)[C@H](C)C4)n(CC(F)(F)F)c3n2)cn1 | > 8.00
CC(=O)N1CCN(c2ccc(-n3c(-c4cc(-c5cnc6[nH]ccc6c5)ccn4)cn(C)c3=O)cc2C(F)(F)F)CC1 | 5.00 to 7.00

Problem: Request - read-out pIC50 | tested on Serine/threonine-protein kinase mTOR (Homo sapiens) | molecule CN(C)C(=O)CN1CCC(n2cnc3cnc4ccc(-c5cnc(N)c(C(F)(F)F)c5)nc4c32)CC1
Solution: > 7.00
